Biological target: T1, biotinylated 6His tag-AviTag-linked mature human IL-33 (residues 112 to 270) (human, UniProt O95760 112-270, biotin on the AviTag portion (BirA))
T1 construct: made in E. coli; also called biotinylated human IL-33 protein
T1 sequence: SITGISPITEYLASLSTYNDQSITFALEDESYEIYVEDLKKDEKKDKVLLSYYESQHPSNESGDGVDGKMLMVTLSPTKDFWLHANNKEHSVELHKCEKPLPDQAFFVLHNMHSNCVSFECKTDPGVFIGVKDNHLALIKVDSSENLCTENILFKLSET
Assay: SPR, IL-33 on chip, Fab supernatant as analyte
Decide using Human IL-33 Binding Amount (RU): a value greater than or equal to 90 RU is yes, a smaller one is no.

{"columns": ["binder", "assigned label"],
 "data": [
  ["A26-1F02 (Fab) (Fab, V domains shown, Fab secreted by E. coli, tested as culture supernatant; also called V18) VH: EVQLLESGGGLVQPGGSLRLSCAASGFTFSNYYMHWVRQAPGKGLEWVSSISARSSYLYYADSVKGRFTISRDNSKNTLYLQMNSLRAEDTAVYYCARLATRHVAFDIWGQGTLVTVSS VL: QSVLTQPPSASGTPGQRVTISCSGSSSNIGNNAVNWYQQLPGTAPKLLIYASNMRRPGVPDRFSGSKSGTSASLAISGLRSEDEADYYCEAWDDSQKAVVFGGGTKLTVL", "yes"],
  ["A25-2H11 (Fab) (Fab, V domains shown, Fab secreted by E. coli, tested as culture supernatant; also called V14) VH: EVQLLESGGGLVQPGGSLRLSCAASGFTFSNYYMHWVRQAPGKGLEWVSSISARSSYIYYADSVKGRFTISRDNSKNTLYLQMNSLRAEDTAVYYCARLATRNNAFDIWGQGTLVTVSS VL: QSVLTQPPSASGTPGQRVTISCSGSSSNIGSNAVSWYQQLPGTAPKLLIYASNMRGSGVPDRFSGSKSGTSASLAISGLRSEDEADYYCAAWDDSQKVVVFGGGTKLTVL", "yes"],
  ["A12-1H04 (Fab) (Fab, V domains shown, Fab secreted by E. coli, tested as culture supernatant; also called V3) VH: EVQLLESGGGLVQPGGSLRLSCAASGFTFSDYYMDWVRQAPGKGLEWVSSISRYSGYVYYADSVKGRFTISRDNSKNTLYLQMNSLRAEDTAVYYCARDIGGMDVWGQGTLVTVSS VL: QSVLTQPPSASGTPGQRVTISCTGSSSNIGAVYNVHWYQQLPGTAPKLLIYRNNQRPSGVPDRFSGSKSGTSASLAISGLRSEDEADYYCQSYDSSRWVFGGGTKLTVL", "yes"],
  ["A25-3H04 (Fab) (Fab, V domains shown, Fab secreted by E. coli, tested as culture supernatant; also called V17) VH: EVQLLESGGGLVQPGGSLRLSCAASGFTFSRYYMHWVRQAPGKGLEWVSSISAQSSHIYYADSVEGRFTISRDNSKNTLYLQMNSLRAEDTAVYYCARLATRQNAFDIWGQGTLVTVSS VL: QSVLTQPPSASGTPGQRVTISCSGSSSNIGRNAVNWYQQLPGTAPKLLIYASNMRRSGVPDRFSGSKSGTSASLAISGLRSEDEADYYCSAWDDSQKVVVFGGGTKLTVL", "no"],
  ["A26-2B01 (Fab) (Fab, V domains shown, Fab secreted by E. coli, tested as culture supernatant; also called V20) VH: EVQLLESGGGLVQPGGSLRLSCAASGFTFSNYYMHWVRQAPGKGLEWVSSISARSSYIYYADSVKGRFTISRDNSKNTLYLQMNSLRAEDTAVYYCARLATRHNAFDIWGQGTLVTVSS VL: QSVLTQPPSASGTPGQRVTISCSGSSSNIGNNAVNWYQQLPGTAPKLLIYASNMRRLGVPDRFSGSKSGTSASLAISGLRSEDEADYYCAAWDDSQKAWVFGGGTKLTVL", "yes"]
]}
